All values here come from patent US6525001B1.

Recorded Plant response rating, Velvetleaf values for a group of compounds are listed next.
Tested on: velvetleaf (Abutilon theophrasti)
Experiment: Test B pre-/postemergence
Assay type: in vivo
Settings: Rate 125 g/ha, Postemergence
Would you mind answering with just the numeric figure?

compound=Cc1cnc(-c2ccc(C(F)(F)F)cc2)nc1Cc1cccc(C(F)(F)F)c1 property_measured="Plant response rating, Velvetleaf" reported=8
compound=Cc1cnc(-c2cccc(C(F)(F)F)c2)nc1Cc1cccc(C(F)(F)F)c1 property_measured="Plant response rating, Velvetleaf" reported=6
compound="Cc1cnc(-c2ccc(C(F)(F)F)cc2)nc1C(C)c1cccc(C(F)(F)F)c1 (racemic)" property_measured="Plant response rating, Velvetleaf" reported=2
compound="Cc1cnc(-c2ccc(C(F)(F)F)cc2)nc1C(Cl)c1cccc(C(F)(F)F)c1 (racemic)" property_measured="Plant response rating, Velvetleaf" reported=8
compound=Cc1cnc(-c2ccc(C(F)(F)F)cc2)nc1Cn1cnc(C(F)(F)F)c1 property_measured="Plant response rating, Velvetleaf" reported=7

query: For the compound `Cc1cnc(-c2ccc(Cl)cc2)nc1Cn1ccc(C(F)(F)F)n1` , what Plant response rating, Velvetleaf is on record?
result: 7

query: Which value of Plant response rating, Velvetleaf has been reported for `Cc1cnc(-c2ccc(C(F)(F)F)cc2)nc1Cc1cccc(OC(F)(F)F)c1` in the records?
result: 8

query: What does the record list as Plant response rating, Velvetleaf for `Cc1cnc(-c2ccc(C(F)(F)F)cc2)nc1Cn1nc(C(F)(F)F)cc1C` ?
result: 4

###

Test system: pigweed (Amaranthus retroflexus)
Assay: Test B pre-/postemergence
Assay type: in vivo
Parameters: key: 0 is no effect; 10 is complete control
Details: Rate 500 g/ha, Postemergence
Property measured: Plant response rating, Redroot pigweed
Enter a number only.

sample_smiles=Cc1cnc(-c2ccc(C(F)(F)F)cc2)nc1Cc1cccc(C(F)(F)F)c1 property_measured="Plant response rating, Redroot pigweed" reported=10

query: Query for pigweed (Amaranthus retroflexus): what Plant response rating, Redroot pigweed does the record show for `Cc1cnc(-c2ccc(C(F)(F)F)cc2)nc1Cn1cnc(C(F)(F)F)n1` ?
result: 10

query: Hi! What's the reported Plant response rating, Redroot pigweed for `Cc1cnc(-c2ccc(C(F)(F)F)cc2)nc1Cn1cc(Br)cn1` on pigweed (Amaranthus retroflexus)?
result: 7

###

Test system: crabgrass (Digitaria sanguinalis)
Assay: Test B pre-/postemergence
Assay type: in vivo
Settings: Rate 500 g/ha, Preemergence
Items are presented alongside their recorded Plant response rating, Crabgrass.
Answer with the value's number alone.

sample_smiles=Cc1cnc(-c2ccc(C(F)(F)F)cc2)nc1Cn1cnc(C(F)(F)F)c1 assay_system="crabgrass (Digitaria sanguinalis)" reported=9
sample_smiles=Cc1cnc(-c2ccc(C(F)(F)F)cc2)nc1Cn1cc(I)cn1 assay_system="crabgrass (Digitaria sanguinalis)" reported=10
sample_smiles=Cc1cnc(-c2ccc(C(F)(F)F)cc2)nc1Cc1cccc(C(F)(F)F)c1 assay_system="crabgrass (Digitaria sanguinalis)" reported=10
sample_smiles=Cc1cnc(-n2cnc(C(F)(F)F)n2)nc1C(=O)c1cccc(C(F)(F)F)c1 assay_system="crabgrass (Digitaria sanguinalis)" reported=10
sample_smiles=Cc1cnc(-n2ccc(C(F)(F)F)n2)nc1C(=O)c1cccc(OC(F)(F)F)c1 assay_system="crabgrass (Digitaria sanguinalis)" reported=9
sample_smiles=Cc1cnc(-n2ccc(C(F)(F)F)n2)nc1Cc1cccc(C(F)(F)F)c1 assay_system="crabgrass (Digitaria sanguinalis)" reported=10
sample_smiles=Cc1cnc(-c2ccc(C(F)(F)F)cc2)nc1Cn1cnc(C(F)(F)F)n1 assay_system="crabgrass (Digitaria sanguinalis)" reported=10
sample_smiles=Cc1cnc(-c2ccc(C(F)(F)F)cc2)nc1C(=O)c1cccc(C(F)(F)F)c1 assay_system="crabgrass (Digitaria sanguinalis)" reported=10

query: Form entry - test system: crabgrass (Digitaria sanguinalis); read-out: Plant response rating, Crabgrass; molecule: `Cc1cnc(-c2ccc(C(F)(F)F)cc2)nc1Cn1ccc(C(F)(F)C(F)(F)F)n1`
result: 8

query: State its Plant response rating, Crabgrass on crabgrass (Digitaria sanguinalis): `Cc1cnc(-n2ccc(C(F)(F)F)n2)nc1C(=O)c1ccc(C(F)(F)F)cc1`
result: 0

###

Parameter: Plant response rating, Crabgrass. Scope: all listed entries.
System: crabgrass (Digitaria sanguinalis)
Test: Test B pre-/postemergence
Type: in vivo
Settings: Rate 500 g/ha, Postemergence
A bare number is all that is needed in reply.

# count of solved cases: 4
molecule="Cc1cnc(-c2ccc(C(F)(F)F)cc2)nc1Cn1nc(C(F)(F)F)cc1C [Compound 13]" reported=9
molecule="Cc1cnc(-n2ccc(C(F)(F)F)n2)nc1Cc1cccc(C(F)(F)F)c1 [Example 2]" reported=10
molecule="Cc1cnc(-c2ccc(C(F)(F)F)cc2)nc1Cn1ccc(C(F)(F)F)n1 [compound 9]" reported=10
molecule="Cc1cnc(-c2ccc(C(F)(F)F)cc2)nc1Cn1cc(I)cn1 [Compound 12]" reported=3

Proceeding to the next molecule to report its Plant response rating, Crabgrass.
query: What Plant response rating, Crabgrass appears in the records for this molecule with crabgrass (Digitaria sanguinalis)? Cc1cnc(-c2ccc(C(F)(F)F)cc2)nc1Cn1cnc(C(F)(F)F)c1 [Compound 10]
result: 6

###

Test system: broadleaf signalgrass (Brachiaria decumbens)
Assay: Test B pre-/postemergence
Type: in vivo
Details: Rate 125 g/ha, Postemergence
Property measured: Plant response rating, B. signalgrass

query: Plant response rating, B. signalgrass of Cc1cnc(-c2ccc(C(F)(F)F)cc2)nc1Cn1nc(C(F)(F)F)cc1C [Compound 13] on broadleaf signalgrass (Brachiaria decumbens)?
result: 5

query: Report Plant response rating, B. signalgrass for Cc1cnc(-c2ccc(C#N)cc2)nc1Cc1cccc(C(F)(F)F)c1 [Compound 30] tested on broadleaf signalgrass (Brachiaria decumbens).
result: 2

query: # value lookup — system broadleaf signalgrass (Brachiaria decumbens), readout Plant response rating, B. signalgrass, item CCc1cnc(-n2ccc(C(F)(F)F)n2)nc1Cc1cccc(OC(F)(F)F)c1 [Compound 47]
result: 5

query: Field: Plant response rating, B. signalgrass (broadleaf signalgrass (Brachiaria decumbens)). Entry: Cc1cnc(-c2ccc(C(F)(F)F)cc2)nc1Cn1cnc(C(F)(F)F)n1 [Compound 11]
result: 3

query: Write down the reported Plant response rating, B. signalgrass of Cc1cnc(-c2ccc(C(F)(F)F)cc2)nc1C(C)c1cccc(C(F)(F)F)c1 (racemic) [Compound 19] , test system: broadleaf signalgrass (Brachiaria decumbens).
result: 2

query: Please state recorded Plant response rating, B. signalgrass (tested on broadleaf signalgrass (Brachiaria decumbens)) of Cc1cnc(-c2cccc(C(F)(F)F)c2)nc1Cc1cccc(C(F)(F)F)c1 [Compound 24]
result: 2

query: Report Plant response rating, B. signalgrass for Cc1cnc(-c2ccc(C(F)(F)F)cc2)nc1Cn1ccc(C(F)(F)C(F)(F)F)n1 [Compound 14] tested on broadleaf signalgrass (Brachiaria decumbens).
result: 2

query: Param readout = Plant response rating, B. signalgrass; param system = broadleaf signalgrass (Brachiaria decumbens); param query = Cc1cnc(-c2ccc(F)c(Cl)c2)nc1Cc1cccc(C(F)(F)F)c1 [Compound 25] ; response: value
result: 3

###

Nutsedge plant response rating values by entry
Test system: purple nutsedge (Cyperus rotundus)
Assay: Test B pre-/postemergence
Type: in vivo
Set-up: key: 0 is no effect; 10 is complete control
Settings: Rate 62 g/ha, Preemergence
Just the number, please, no unit attached.

Answered examples (3):
molecule=Cc1cnc(-c2ccc(OC(F)(F)F)cc2)nc1Cc1cccc(C(F)(F)F)c1 property_measured="Nutsedge plant response rating" reported=0
molecule=Cc1cnc(-c2ccc(Cl)c(Cl)c2)nc1Cc1cccc(C#N)c1 property_measured="Nutsedge plant response rating" reported=0
molecule=Cc1cnc(-c2cccc(C(F)(F)F)c2)nc1Cc1cccc(C(F)(F)F)c1 property_measured="Nutsedge plant response rating" reported=0

query: Consider the molecule shown here: `CCc1cnc(-c2ccc(C(F)(F)F)cc2)nc1Cc1cccc(C(F)(F)F)c1` What is its recorded Nutsedge plant response rating?
result: 0

query: Consider the molecule COC(c1cccc(C(F)(F)F)c1)c1nc(-c2ccc(C(F)(F)F)cc2)ncc1C (racemic) and give its measured Nutsedge plant response rating.
result: 0

query: If you can, please state the reported Nutsedge plant response rating value of `Cc1cnc(-n2cnc(C(F)(F)F)c2)nc1Cc1cccc(C(F)(F)F)c1` .
result: 2

###

System: rice (Oryza sativa)
Assay: Test B flood test
Type: in vivo
Parameters: key: 0 is no effect; 10 is complete control
Details: Rate 62 g/ha, Postemergence (flood test)
Listing: Rice plant response rating of selected molecules
Reply: number alone, nothing else.

Some molecules with recorded Rice plant response rating:
sample_smiles=Cc1cnc(-n2ccc(C(F)(F)F)n2)nc1C(=O)c1cccc(OC(F)(F)F)c1 assay_system="rice (Oryza sativa)" reported=0
sample_smiles=Cc1cnc(-n2cnc(C(F)(F)F)c2)nc1C(=O)c1cccc(OC(F)(F)F)c1 assay_system="rice (Oryza sativa)" reported=0
sample_smiles=O=C(c1cccc(C(F)(F)F)c1)c1ccnc(-c2ccc(C(F)(F)F)cc2)n1 assay_system="rice (Oryza sativa)" reported=0
sample_smiles=Cc1cnc(-n2ccc(C(F)(F)C(F)(F)F)n2)nc1C(=O)c1cccc(OC(F)(F)F)c1 assay_system="rice (Oryza sativa)" reported=0

Turning now to a further record.
query: Dear colleague, I am looking for the recorded Rice plant response rating of the following molecule: `Cc1cnc(-c2ccc(C(F)(F)F)cc2)nc1Cn1ccc(C#N)n1`
result: 1
